Catalogue of cytotoxicity at 70.5 h readings, one per entry.
Assay overview: Human HepG2 cell viability assay in 384 well format
Type: toxicity, cell-based
Set-up: dose 125 nL, time 70.5 hour; concentration not given beside the values
Details: HepG2 cells, read-out: Inhibition
Record the value in %, omitting the unit from your answer.

{"Molecule": "Cc1nnc(C(C)N2CCN(Cc3noc(C(C)(C)C)n3)CC2)o1 (configuration not stated)", "Unit label": "%", "cytotoxicity at 70.5 h": -3.37}
{"Molecule": "CC(C)Nc1cc(N2CCC(n3cc(C4CCCC4)nn3)CC2)ncn1", "Unit label": "%", "cytotoxicity at 70.5 h": -8.81}
{"Molecule": "CC(C)(NS(C)(=O)=O)C(=O)NCCc1csc2ccccc12", "Unit label": "%", "cytotoxicity at 70.5 h": 4.98}

Prompt: Can you look up the measured cytotoxicity at 70.5 h of OC1(CN2CCOC(Cn3cncn3)C2)CCCCC1 (configuration not stated) for me?
Response: 2.37

Prompt: Give its cytotoxicity at 70.5 h value. Item: CC1CN(C(=O)c2ccc(C(N)=O)cc2)c2ccc(F)cc2O1 (configuration not stated)
Response: 2.67

Prompt: Could you tell me which cytotoxicity at 70.5 h is on file for CN(C)CCNC(=O)Nc1cccc(C[S+]([O-])Cc2ccccc2)c1 (configuration not stated) ?
Response: -2.04

Prompt: Request the reported cytotoxicity at 70.5 h associated with CCCC(=O)N1CCC2(CC1)CC(NC(C)=O)c1ccccc1O2 (configuration not stated)
Response: -13.7

Prompt: Give the measured cytotoxicity at 70.5 h of Cc1cc(C(=O)NC2=NCCS2)c(C)n1-c1ccccn1 .
Response: -6.96

* * *

Assay overview: Human HepG2 cell viability assay in 384 well format
Type: toxicity, cell-based
Parameters: dose 125 nL, time 70.5 hour; concentration not given beside the values
Details: HepG2 cells, read-out: Inhibition
Measurement name: cytotoxicity at 70.5 h (%)
Form entry: value (%) — number only.

{"Compound": "Cn1cccc1C(=O)N1CCC2(CCCN2Cc2ccccc2)CC1", "cytotoxicity at 70.5 h [%]": -9.97}
{"Compound": "CN1CCN(c2ccccc2NC(=O)NCCc2ccc(O)cc2)CC1", "cytotoxicity at 70.5 h [%]": -6.51}
{"Compound": "Cc1ncccc1CNC1CCCN(Cc2noc(C3CC3)n2)C1 (stereo unspecified)", "cytotoxicity at 70.5 h [%]": 0.441}

Prompt: Find the recorded cytotoxicity at 70.5 h belonging to N#Cc1c(F)cccc1N1CCC(C(=O)Nc2nccs2)CC1 and report it.
Response: -17.6

Prompt: Need cytotoxicity at 70.5 h, item CN(Cc1cccnc1)C[C@H]1OC[C@@H]2CCN(c3ncccn3)C[C@@H]21
Response: -0.858

Prompt: For the compound COC[C@@]12CCO[C@@H]1CCN(C(=O)Cc1ccccc1C)C2 , what cytotoxicity at 70.5 h is on record?
Response: -3.36

* * *

Assay overview: Human HepG2 cell viability assay in 384 well format
Format: toxicity, cell-based
Set-up: dose 125 nL, time 70.5 hour; concentration not given beside the values
Details: HepG2 cells, read-out: Inhibition
# cytotoxicity at 70.5 h per record follows
Your answer is read as %, so omit the unit and give the number.

Some solved entries appear below for comparison.
{"Compound": "O=C(Cc1cccs1)NCc1ccnc(OC2CCOCC2)c1", "cytotoxicity at 70.5 h [%]": -6.12}
{"Compound": "CCN(CC)C(=O)[C@@H]1C[C@H](N)CN1c1noc(-c2ccccc2)n1", "cytotoxicity at 70.5 h [%]": -3.04}
{"Compound": "O=c1ccc2c(n1CC1CC1)CCC(NS(=O)(=O)C1CC1)C2 (configuration not stated)", "cytotoxicity at 70.5 h [%]": 21.2}
{"Compound": "c1cncc(-c2nccc(CN3CCCC3)n2)c1", "cytotoxicity at 70.5 h [%]": 3.79}
{"Compound": "CN(C(=O)CN1CCC(c2cc3ccccc3[nH]2)CC1)C(C)(C)C#N", "cytotoxicity at 70.5 h [%]": -16.1}

Prompt: Can you look up the measured cytotoxicity at 70.5 h of CO[C@@H]1CC[C@H]2[C@H]1OCCN2C(=O)COc1ccc(F)cc1 for me?
Response: -16.9

Prompt: Requested field: cytotoxicity at 70.5 h. Item: CC(C)(C)NC(=O)CNC(=O)c1cccnc1Oc1cccnc1
Response: -6.52

* * *

Assay overview: Human HepG2 cell viability assay in 384 well format
Assay type: toxicity, cell-based
Parameters: dose 125 nL, time 70.5 hour; concentration not given beside the values
Details: HepG2 cells, read-out: Inhibition
Measurement name: cytotoxicity at 70.5 h (%)
Give your result in % as a bare value.

Completed entries (count: 5):
{"Molecule": "CN(C)C(C(=O)N1CCN(CC(F)(F)F)CC1)c1ccccc1F (stereo unspecified)", "cytotoxicity at 70.5 h, %": -1.96}
{"Molecule": "Cn1ccnc1CNC[C@H]1Cn2cc(-c3ccccc3)nc2CO1", "cytotoxicity at 70.5 h, %": -8.01}
{"Molecule": "Cc1cc(N2CCC3(CCCN(CCO)C3=O)C2)nc2cc(Cl)ccc12 (stereo unspecified)", "cytotoxicity at 70.5 h, %": -19.8}
{"Molecule": "N#Cc1ccc(N2CCN(c3ccc4nncn4n3)CC2)nc1", "cytotoxicity at 70.5 h, %": -2}
{"Molecule": "CCN(Cc1nccn1C)C(=O)c1ccc(NCc2ccccc2)nc1", "cytotoxicity at 70.5 h, %": -2.21}

Here is another molecule to look at.
Prompt: Would you kindly share the measured cytotoxicity at 70.5 h for C=C(C)COc1ccccc1NC(=O)N1CCOCC(CO)C1 (stereo unspecified) ?
Response: 23.5

* * *

Item-by-item account of cytotoxicity at 70.5 h
Assay overview: Human HepG2 cell viability assay in 384 well format
Format: toxicity, cell-based
Design: dose 125 nL, time 70.5 hour; concentration not given beside the values
Details: HepG2 cells, read-out: Inhibition
Output spec: scalar in %, unitless text.

{"Molecule": "Cc1oc(C(=O)O)cc1S(=O)(=O)Nc1cccc(-n2nccc2C)c1", "Unit label": "%", "cytotoxicity at 70.5 h": -5.02}
{"Molecule": "Cc1oc(C(=O)O)cc1S(=O)(=O)Nc1ccc(Cl)cc1F", "Unit label": "%", "cytotoxicity at 70.5 h": -0.71}
{"Molecule": "CCn1cc2c(n1)CN(Cc1nccs1)CC2COCC1CC1 (centres undefined)", "Unit label": "%", "cytotoxicity at 70.5 h": -11}

Prompt: Value lookup for cytotoxicity at 70.5 h; key = O=C1CSC(c2ccncc2)c2c(n(C3CCOCC3)[nH]c2=O)N1 (centres undefined)
Response: 36.4

Prompt: Would you mind telling me what cytotoxicity at 70.5 h value was observed for Cc1ccsc1C(=O)N1CC2CC1(C(=O)NCC1CC1)C2 ?
Response: -16.8

Prompt: Record request: cytotoxicity at 70.5 h value, item Cc1ccsc1CCNC(C)C(=O)NC1CCCC1 (centres undefined)
Response: -10.7

Prompt: Tell me the measured cytotoxicity at 70.5 h of COc1cccc(COCC(=O)N2CCCC(n3cncn3)C2)c1 (centres undefined) , please.
Response: -1.04

Prompt: # input molecule: CCn1nc(C)c2nnn(CC(=O)Nc3cccc(Cl)c3)c(=O)c21 ; wanted: its cytotoxicity at 70.5 h
Response: -5.39

Prompt: What does the record list as cytotoxicity at 70.5 h for CCOCC1CN(C(=O)c2cccc(C)n2)Cc2cnn(C)c21 (centres undefined) ?
Response: -11.5

* * *

Assay overview: Human HepG2 cell viability assay in 384 well format
Format: toxicity, cell-based
Parameters: dose 125 nL, time 70.5 hour; concentration not given beside the values
Details: HepG2 cells, read-out: Inhibition
Measurement name: cytotoxicity at 70.5 h (%)
# output: bare number, implied unit %

Prompt: Can you look up the measured cytotoxicity at 70.5 h of Cn1nnc2c1CCN(CC1CC1)C2COCC1CC1 (centres undefined) for me?
Response: -12.8

Prompt: Reported cytotoxicity at 70.5 h, compound O=C1CCCN1C(CNS(=O)(=O)C1CC1)Cc1cccc(F)c1 (centres undefined) : ____
Response: -15.5

Prompt: cytotoxicity at 70.5 h lookup needed for Cc1nc2ccccc2nc1CN(C)CC1CCCN1c1cccnn1 (centres undefined) , thanks.
Response: 3.52

Prompt: Requested field: cytotoxicity at 70.5 h. Item: Cc1cc(C)n(CC2CN(CC(=O)NCc3ccccn3)CCO2)n1 (centres undefined)
Response: -2.74

Prompt: Any idea what its cytotoxicity at 70.5 h is? The compound is Cc1cccc(OCCNC(=O)CN2CCCC2Cn2cncn2)c1 (centres undefined)
Response: -4.68

Prompt: What value of measured cytotoxicity at 70.5 h is listed for Nc1nc(Cn2ccnc2-c2cc(CN3CCCC3)cs2)cs1 ?
Response: 3.17

Prompt: Which measured cytotoxicity at 70.5 h value corresponds to CC(C)OCCCNC(=O)CN1CCN(c2nccs2)CC1 ?
Response: -4.41

Prompt: Request the reported cytotoxicity at 70.5 h associated with Cc1cnn(CC(=O)NC2CCCc3cc(OC(F)F)ccc32)c1 (centres undefined)
Response: -6.6
